Give EC50, CellTiter-Blue viability for every item shown.
system: MFM-223; conditions: 72 h
A number alone suffices; assume nM.

q: // lookup EC50, CellTiter-Blue viability | system=MFM-223 | key= CN1CC[C@H](c2c(O)cc(O)c3c(=O)cc(-c4ccccc4Cl)oc23)[C@H](O)C1 [Alvocidib]
a: 174

q: Field entry: `CN1CCC(COc2cnc(-c3cccc(Cn4nc(-c5cccc(C#N)c5)ccc4=O)c3)nc2)CC1`
a: 6270

q: Field entry: CC[C@]1(O)C[C@@H]2CN(CCc3c([nH]c4ccccc34)[C@@](C(=O)OC)(c3cc4c(cc3OC)N(C)[C@H]3[C@@](O)(C(=O)OC)[C@H](OC(C)=O)[C@]5(CC)C=CCN6CC[C@]43[C@@H]65)C2)C1 [Vinblastine]
a: 36

q: Field entry: Cc1c2oc3c(C)ccc(C(=O)N[C@@H]4C(=O)N[C@H](C(C)C)C(=O)N5CCC[C@H]5C(=O)N(C)CC(=O)N(C)[C@@H](C(C)C)C(=O)O[C@@H]4C)c3nc-2c(C(=O)N[C@@H]2C(=O)N[C@H](C(C)C)C(=O)N3CCC[C@H]3C(=O)N(C)CC(=O)N(C)[C@@H](C(C)C)C(=O)O[C@@H]2C)c(N)c1=O [Dactinomycin]
a: 14.8

---

Give drug sensitivity score for every item shown.
test system: MDA-MB-468; assay: drug sensitivity score (DSS), CellTiter-Blue viability (DSS (AUC-based score)); higher = stronger viability inhibition; extreme values may be limits of the assay; conditions: incubation time: 72 h
I only need the number, thanks.

q: What does the record list as drug sensitivity score for `C=CCNC1=C2C[C@@H](C)C[C@H](OC)[C@H](O)[C@@H](C)/C=C(\C)[C@H](OC(N)=O)[C@@H](OC)/C=C\C=C(/C)C(=O)NC(=CC1=O)C2=O` ?
a: 0

q: Field entry: `Cc1c2oc3c(C)ccc(C(=O)N[C@@H]4C(=O)N[C@H](C(C)C)C(=O)N5CCC[C@H]5C(=O)N(C)CC(=O)N(C)[C@@H](C(C)C)C(=O)O[C@@H]4C)c3nc-2c(C(=O)N[C@@H]2C(=O)N[C@H](C(C)C)C(=O)N3CCC[C@H]3C(=O)N(C)CC(=O)N(C)[C@@H](C(C)C)C(=O)O[C@@H]2C)c(N)c1=O`
a: 31.4

q: Field entry: `S=c1[nH]cnc2nc[nH]c12`
a: 5.53

q: Field entry: `OC[C@H]1O[C@@H](n2cnc3c2N=CNC[C@H]3O)C[C@@H]1O`
a: 0

---

test system: HCC1599; assay: normalised response (% of control), CellTiter-Glo; higher = more viable cells (100 = DMSO, 0 = benzethonium chloride kill control); conditions: incubation time: 72 h
quantity.kind: normalised response (%)
A number alone suffices; assume %.

q: What does the record list as normalised response for Nc1ccn([C@@H]2O[C@H](CO)[C@@H](O)[C@@H]2O)c(=O)n1 [Cytarabine] (100 nM) ?
a: 88.6

q: Field entry: COc1cccc2c1C(=O)c1c(O)c3c(c(O)c1C2=O)C[C@@](O)(C(=O)CO)C[C@@H]3O[C@H]1C[C@H](N)[C@H](O)[C@H](C)O1 [Doxorubicin] (10 nM)
a: 98.8

q: Field entry: CCN1CCN(c2ccc(Nc3cc(N(C)C(=O)Nc4c(Cl)c(OC)cc(OC)c4Cl)ncn3)cc2)CC1 [NVP-BGJ398] (10 nM)
a: 115

q: Field entry: Cc1ccc(F)c(NC(=O)Nc2ccc(-c3cccc4[nH]nc(N)c34)cc2)c1 [Linifanib] (10 nM)
a: 108

q: Field entry: Cc1c2oc3c(C)ccc(C(=O)N[C@@H]4C(=O)N[C@H](C(C)C)C(=O)N5CCC[C@H]5C(=O)N(C)CC(=O)N(C)[C@@H](C(C)C)C(=O)O[C@@H]4C)c3nc-2c(C(=O)N[C@@H]2C(=O)N[C@H](C(C)C)C(=O)N3CCC[C@H]3C(=O)N(C)CC(=O)N(C)[C@@H](C(C)C)C(=O)O[C@@H]2C)c(N)c1=O [Dactinomycin] (10 nM)
a: 102

---

tested on: CAL-51; test: normalised response (% of control), CellTiter-Glo; higher = more viable cells (100 = DMSO, 0 = benzethonium chloride kill control); details: incubation time: 72 h
quantity.kind: normalised response (%)
A number alone suffices; assume %.

q: What does the record list as normalised response for CN(C)C/C=C/C(=O)Nc1cc2c(Nc3ccc(F)c(Cl)c3)ncnc2cc1O[C@H]1CCOC1 [Afatinib] (100 nM) ?
a: 118

q: Field entry: S=c1[nH]cnc2nc[nH]c12 [Mercaptopurine] (1 nM)
a: 122

q: Field entry: CN1CC[C@H](c2c(O)cc(O)c3c(=O)cc(-c4ccccc4Cl)oc23)[C@H](O)C1 [Alvocidib] (10 nM)
a: 125

q: Field entry: CN1CC[C@H](c2c(O)cc(O)c3c(=O)cc(-c4ccccc4Cl)oc23)[C@H](O)C1 [Alvocidib] (1 nM)
a: 80.2

---

system: CAL-120; test: normalised response (% of control), CellTox Green; higher = less cell death (100 = DMSO, 0 = benzethonium chloride kill control); conditions: incubation time: 72 h
quantity.kind: normalised response (%)
A number alone suffices; assume %.

q: What does the record list as normalised response for CS(=O)(=O)c1ccc(C(=O)Nc2ccc(Cl)c(-c3ccccn3)c2)c(Cl)c1 [Vismodegib] (100 nM) ?
a: 98.9

q: Field entry: OC[C@H]1O[C@@H](n2cnc3c2N=CNC[C@H]3O)C[C@@H]1O [Pentostatin] (10000 nM)
a: 104

q: Field entry: Cc1c2oc3c(C)ccc(C(=O)N[C@@H]4C(=O)N[C@H](C(C)C)C(=O)N5CCC[C@H]5C(=O)N(C)CC(=O)N(C)[C@@H](C(C)C)C(=O)O[C@@H]4C)c3nc-2c(C(=O)N[C@@H]2C(=O)N[C@H](C(C)C)C(=O)N3CCC[C@H]3C(=O)N(C)CC(=O)N(C)[C@@H](C(C)C)C(=O)O[C@@H]2C)c(N)c1=O [Dactinomycin] (1000 nM)
a: 101

q: Field entry: COc1cccc2c1C(=O)c1c(O)c3c(c(O)c1C2=O)C[C@@](O)(C(=O)CO)C[C@@H]3O[C@H]1C[C@H](N)[C@H](O)[C@H](C)O1 [Doxorubicin] (1000 nM)
a: 92.7

q: Field entry: Nc1ccn([C@@H]2O[C@H](CO)[C@@H](O)[C@@H]2O)c(=O)n1 [Cytarabine] (10000 nM)
a: 108

q: Field entry: COc1cccc2c1C(=O)c1c(O)c3c(c(O)c1C2=O)C[C@@](O)(C(=O)CO)C[C@@H]3O[C@H]1C[C@H](N)[C@H](O)[C@H](C)O1 [Doxorubicin] (100 nM)
a: 100

q: Field entry: S=c1[nH]cnc2nc[nH]c12 [Mercaptopurine] (100 nM)
a: 98.4

q: Field entry: CO[C@H]1C[C@@H]2CC[C@@H](C)[C@@](O)(O2)C(=O)C(=O)N2CCCC[C@H]2C(=O)O[C@H]([C@H](C)C[C@@H]2CC[C@@H](OC(=O)C(C)(CO)CO)[C@H](OC)C2)CC(=O)[C@H](C)/C=C(\C)[C@@H](O)[C@@H](OC)C(=O)[C@H](C)C[C@H](C)/C=C/C=C/C=C/1C [Temsirolimus] (100 nM)
a: 102

q: Field entry: COc1cccc2c1C(=O)c1c(O)c3c(c(O)c1C2=O)C[C@@](O)(C(=O)CO)C[C@@H]3O[C@H]1C[C@H](N)[C@H](O)[C@H](C)O1 [Doxorubicin] (10 nM)
a: 96.7

q: Field entry: CS(=O)(=O)c1ccc(C(=O)Nc2ccc(Cl)c(-c3ccccn3)c2)c(Cl)c1 [Vismodegib] (1000 nM)
a: 95

q: Field entry: CCN1CCN(c2ccc(Nc3cc(N(C)C(=O)Nc4c(Cl)c(OC)cc(OC)c4Cl)ncn3)cc2)CC1 [NVP-BGJ398] (10 nM)
a: 96.6

---

system: MDA-MB-453; assay: normalised viability (% of control), CellTiter-Blue; higher = more viable cells (about 100 = DMSO control); settings: incubation time: 72 h
quantity.kind: normalised viability (%)
A number alone suffices; assume %.

q: // lookup normalised viability | system=MDA-MB-453 | key= Nc1nc(Cl)nc2c1ncn2[C@H]1C[C@H](O)[C@@H](CO)O1 [Cladribine] (1000 nM)
a: 73.7

q: Field entry: Nc1ccn([C@@H]2O[C@H](CO)[C@@H](O)[C@@H]2O)c(=O)n1 [Cytarabine] (10000 nM)
a: 58.7

q: Field entry: N#CC[C@H](C1CCCC1)n1cc(-c2ncnc3[nH]ccc23)cn1 [Ruxolitinib] (10000 nM)
a: 66.1

q: Field entry: CN1CCC(COc2cnc(-c3cccc(Cn4nc(-c5cccc(C#N)c5)ccc4=O)c3)nc2)CC1 (10000 nM)
a: 3.23

q: Field entry: Clc1ccc(C(c2ccccc2Cl)C(Cl)Cl)cc1 (stereo not given) [Mitotane] (10000 nM)
a: 89.7
